Each recorded value in this set is attributed to patent US20220275067A1.

target: T1, recombinant human 4R0N tau (human, UniProt P10636 2-758); test: SPR Biacore T200; antibody captured by anti-human Fc; tau as analyte; global 1:1 fit
T1 construct: also called recombinant 4R0N human tau; P10636-6
T1 sequence (P10636 other isoform, or with tags, fused parts or gaps limits assumed): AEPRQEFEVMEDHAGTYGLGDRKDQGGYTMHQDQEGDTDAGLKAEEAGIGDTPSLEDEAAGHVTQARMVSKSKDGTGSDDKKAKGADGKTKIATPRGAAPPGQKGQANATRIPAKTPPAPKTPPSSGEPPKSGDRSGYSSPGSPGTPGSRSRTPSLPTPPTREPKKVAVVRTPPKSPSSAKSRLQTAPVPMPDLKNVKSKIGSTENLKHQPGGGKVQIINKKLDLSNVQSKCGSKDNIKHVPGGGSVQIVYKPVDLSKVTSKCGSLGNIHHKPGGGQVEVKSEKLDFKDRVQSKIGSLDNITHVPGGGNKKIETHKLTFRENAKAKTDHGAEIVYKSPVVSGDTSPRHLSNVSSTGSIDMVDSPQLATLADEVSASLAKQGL
quantityKind: kon (M⁻¹ s⁻¹)
Number in M⁻¹ s⁻¹, nothing else.

Before answering, review these 2 worked examples.
# binder, observedResult
records = [
    ("hu9F5VHv9/hu9F5VLv8_DIM21 (antibody, V domains shown) VH: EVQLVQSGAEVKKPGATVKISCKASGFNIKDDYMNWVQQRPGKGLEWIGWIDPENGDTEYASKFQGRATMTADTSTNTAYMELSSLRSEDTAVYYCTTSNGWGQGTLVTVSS VL: DIQMTQSPFSLPVTPGESASISCRSSKSLSHSNGITYLYWYQQKPGQSPQLLIYQISNGASGVPNRFSSSGSGTDFTLKISRVEAEDVGVYYCAQNLELPLTFGQGTKLEIK", "1.31e+06"),
    ("hu9F5VHv9/hu9F5VLv8_DIM8 (antibody, V domains shown) VH: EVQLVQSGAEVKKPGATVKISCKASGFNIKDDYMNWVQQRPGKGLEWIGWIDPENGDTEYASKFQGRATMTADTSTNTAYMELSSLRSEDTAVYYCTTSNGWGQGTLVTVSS VL: DIQMTQSPFSLPVTPGESASISCRSSKSLGHSNGITYLYWYQQKPGQSPQLLIYQKSNRASGVPNRFSSSGSGTDFTLKISRVEAEDVGVYYCAQNIELPLTFGQGTKLEIK", "1.32e+06"),
]

Below: the item to evaluate.
Dear colleague, I am looking for the recorded kon of the following binder: hu9F5VHv9/hu9F5VLv8_DIM26 (antibody, V domains shown) VH: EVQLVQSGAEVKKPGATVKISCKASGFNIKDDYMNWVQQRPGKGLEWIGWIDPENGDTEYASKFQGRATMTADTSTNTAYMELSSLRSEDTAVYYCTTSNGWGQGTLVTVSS VL: DIQMTQSPFSLPVTPGESASISCRSSKSLIHSNGITYLYWYIQKPGQSPQLLIYQESNRASGVPNRFSSSGSGTDFTLKISRVEAEDVGVYYCAQNLELPLTFGQGTKLEIK
3.84e+06
